# Study system: UniProt Q9UBN7
# Sequence (Q9UBN7 whole entry): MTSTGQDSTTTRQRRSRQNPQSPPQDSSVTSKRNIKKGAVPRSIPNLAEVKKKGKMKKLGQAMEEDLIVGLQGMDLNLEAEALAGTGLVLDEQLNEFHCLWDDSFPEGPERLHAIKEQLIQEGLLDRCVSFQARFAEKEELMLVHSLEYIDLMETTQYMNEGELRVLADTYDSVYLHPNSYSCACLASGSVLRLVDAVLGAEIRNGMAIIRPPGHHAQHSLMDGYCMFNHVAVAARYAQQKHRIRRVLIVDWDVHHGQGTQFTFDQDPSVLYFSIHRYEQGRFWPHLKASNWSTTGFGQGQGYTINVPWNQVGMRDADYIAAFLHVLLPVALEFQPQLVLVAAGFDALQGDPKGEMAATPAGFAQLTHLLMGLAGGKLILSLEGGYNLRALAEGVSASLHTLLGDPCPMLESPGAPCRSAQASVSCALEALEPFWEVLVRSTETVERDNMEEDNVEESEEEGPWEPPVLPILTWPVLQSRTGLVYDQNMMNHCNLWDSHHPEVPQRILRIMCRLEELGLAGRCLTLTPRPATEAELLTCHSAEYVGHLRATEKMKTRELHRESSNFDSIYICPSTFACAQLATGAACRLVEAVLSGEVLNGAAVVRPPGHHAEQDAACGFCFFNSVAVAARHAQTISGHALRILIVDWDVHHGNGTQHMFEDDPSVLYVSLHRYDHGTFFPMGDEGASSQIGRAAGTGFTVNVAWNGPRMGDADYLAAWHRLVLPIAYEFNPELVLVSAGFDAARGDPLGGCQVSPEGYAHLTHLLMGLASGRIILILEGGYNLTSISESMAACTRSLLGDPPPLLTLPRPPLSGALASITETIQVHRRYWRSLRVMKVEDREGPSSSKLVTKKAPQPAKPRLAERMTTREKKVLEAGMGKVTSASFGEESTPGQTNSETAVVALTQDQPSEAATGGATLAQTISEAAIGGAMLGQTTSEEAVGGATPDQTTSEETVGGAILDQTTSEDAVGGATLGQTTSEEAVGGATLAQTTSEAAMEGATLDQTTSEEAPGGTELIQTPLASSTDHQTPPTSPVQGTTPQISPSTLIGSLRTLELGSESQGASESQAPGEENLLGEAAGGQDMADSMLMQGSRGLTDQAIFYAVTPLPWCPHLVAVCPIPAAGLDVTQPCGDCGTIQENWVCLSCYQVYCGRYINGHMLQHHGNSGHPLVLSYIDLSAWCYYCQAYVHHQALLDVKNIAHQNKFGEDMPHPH
# IC50 against UniProt Q9UBN7, merged from multiple literature sources
Observation type: IC50 (nM)

Below are worked cases with known answers.
O=C(NO)c1ccc(Cn2cc(-c3cccc4[nH]ncc34)nc(N3CCOCC3)c2=O)cc1: 4.5
CN1CCN(c2nc(-c3ccc(C(=O)NO)cc3)nc3cc(Cl)ccc23)CC1: 56
O=CN(O)CCCCCCCC(=O)Nc1cccc2ccccc12: 3100

P = COc1cc(C(=O)NCCc2ccc(/C=C/C(=O)NO)cc2)ccc1O
Q = O=C(CCCCC[C@@H]1NC(=O)[C@H]2CCCN2C(=O)[C@@H]2CCCCCCCCCC[C@@H](NC1=O)C(=O)N2)NO
Kindly identify which of P and Q has the larger recorded IC50 value. Choose, then provide that item's label. Q
(Q: 410 nM, P: 10.7 nM)
